OBSERVATION TYPE: melting point

stdin: What melting point value was documented for this compound, O=c1cc(OCc2ccccc2)ccn1-c1ccc(N2CC3(CCN(C4CC4)CC3)C2)cc1 [Compound 1-9] ?
stdout: 276.5 °C

stdin: What melting point value was documented for this compound, O=c1cc(OCc2ccccc2)ccn1-c1ccc(N2CCC3(CCCNC3)CC2)cc1 [Compound 1-2] ?
stdout: 141.5 °C

stdin: What melting point value was documented for this compound, O=c1cc(OCc2ccccc2)ccn1-c1ccc(N2CC3(CCNCC3)C2)cc1 [Compound 1-5] ?
stdout: 203.2 °C

stdin: What melting point value was documented for this compound, Cc1cc(-n2ccc(OCc3ccccc3)cc2=O)ccc1N1CC2(CCNCC2)C1 [Compound 2-1] ?
stdout: 164.6 °C

stdin: What melting point value was documented for this compound, O=c1cc(OCc2ccccc2)ccn1-c1ccc(N2CC3(CCNCC3)C2)cc1 [Compound 1-12] ?
stdout: 231 °C

stdin: What melting point value was documented for this compound, O=c1cc(OCc2ccccc2)ccn1-c1ccc(N2CCC3(CCNCC3)C2)cc1 [Compound 1-7] ?
stdout: 236.3 °C

stdin: What melting point value was documented for this compound, O=c1cc(COc2ccccc2)ccn1-c1ccc(N2CC3(CCNCC3)C2)cc1 [Compound 3-3] ?
stdout: 292.7 °C

---

# ASSAY TARGET: human MCH-1 receptor (Homo sapiens, UniProt Q99705)
# Construct: expressed in transfected cells
# Sequence (Q99705 whole entry): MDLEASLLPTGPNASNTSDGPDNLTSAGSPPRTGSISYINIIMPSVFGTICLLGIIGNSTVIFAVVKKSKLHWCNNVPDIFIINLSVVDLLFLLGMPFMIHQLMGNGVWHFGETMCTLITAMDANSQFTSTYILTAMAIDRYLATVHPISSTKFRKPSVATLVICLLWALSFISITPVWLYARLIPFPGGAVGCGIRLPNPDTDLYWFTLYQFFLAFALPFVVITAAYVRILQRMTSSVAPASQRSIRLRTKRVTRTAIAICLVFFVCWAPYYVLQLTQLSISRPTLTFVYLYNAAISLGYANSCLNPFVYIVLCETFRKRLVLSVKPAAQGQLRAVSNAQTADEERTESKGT
# MEASUREMENT NOTES: Ca2+ mobilization experiment for the MCH-1 receptor (FLIPR), inhibition of MCH-induced Ca2+ response
# Type: cell-based
# EXPERIMENTAL CONTEXT: CHO cells stably expressing human MCH-1 receptor, submaximal MCH concentration, read-out: MCH-1 pIC50 (converted)
Please respond with reported IC50 for every item in the list.

stdin: What IC50 value was documented for this molecule, O=c1cc(OCc2ccccc2)ccn1-c1ccc(N2CC3(CCNCC3)C2)cc1 [Compound 1-5] ?
stdout: 31.6 nM

stdin: What IC50 value was documented for this molecule, O=c1cc(OCc2ccccc2)ccn1-c1ccc(N2CC3(CCNCC3)C2)c(Cl)c1 ?
stdout: 25.1 nM

stdin: What IC50 value was documented for this molecule, COc1cc(-n2ccc(OCc3ccccc3)cc2=O)ccc1N1CC2(CCNCC2)C1 ?
stdout: 39.8 nM

stdin: What IC50 value was documented for this molecule, O=c1cc(OCc2ccccc2)ccn1-c1ccc(N2CCC3(CCCNC3)C2)cc1 (centres unmarked) ?
stdout: 25.1 nM

stdin: What IC50 value was documented for this molecule, O=c1cc(COc2ccccc2)ccn1-c1ccc(N2CC3(CCNCC3)C2)cc1 ?
stdout: 501 nM

stdin: What IC50 value was documented for this molecule, O=c1cc(OCc2ccccc2)ccn1-c1ccc(N2CC3(CCNCC3)C2)cc1 [Compound 1-12] ?
stdout: 25.1 nM

stdin: What IC50 value was documented for this molecule, O=C1N(c2ccc(-n3ccc(OCc4ccccc4)cc3=O)cc2)CC12CCNCC2 ?
stdout: 50.1 nM

stdin: What IC50 value was documented for this molecule, O=c1cc(OCc2ccccc2)ccn1-c1ccc(N2CCC3(CC2)CNC3)cc1 ?
stdout: 79.4 nM

stdin: What IC50 value was documented for this molecule, O=c1cc(OCc2ccccc2)ccn1-c1ccc(N2CCCC3(CCNC3)C2)cc1 (centres unmarked) ?
stdout: 31.6 nM

stdin: What IC50 value was documented for this molecule, O=c1cc(OCc2ccccc2)ccn1-c1ccc(N2CCC3(CCNCC3)C2)cc1 ?
stdout: 63.1 nM

stdin: What IC50 value was documented for this molecule, CN1CCC2(CC1)CN(c1ccc(-n3ccc(OCc4ccccc4)cc3=O)cc1Cl)C2 ?
stdout: 31.6 nM

stdin: What IC50 value was documented for this molecule, O=c1cc(OCc2ccc(F)cc2)ccn1-c1ccc(N2CC3(CCNCC3)C2)cc1 ?
stdout: 39.8 nM

stdin: What IC50 value was documented for this molecule, CN1CCC2(CC1)CCN(c1ccc(-n3ccc(OCc4ccccc4)cc3=O)cc1)C2 ?
stdout: 31.6 nM

stdin: What IC50 value was documented for this molecule, O=c1cc(/C=C/c2ccccc2)ccn1-c1ccc(N2CC3(CCNCC3)C2)cc1 ?
stdout: 63.1 nM

stdin: What IC50 value was documented for this molecule, Cc1cc(-n2ccc(OCc3ccccc3)cc2=O)ccc1N1CC2(CCNCC2)C1 ?
stdout: 25.1 nM

stdin: What IC50 value was documented for this molecule, O=c1cc(OCc2ccccc2)ccn1-c1ccc(N2CCC3(CC2)CNCCO3)cc1 ?
stdout: 126 nM

stdin: What IC50 value was documented for this molecule, O=C1CC2(CCNCC2)CN1c1ccc(-n2ccc(OCc3ccccc3)cc2=O)cc1 ?
stdout: 79.4 nM

stdin: What IC50 value was documented for this molecule, O=c1cc(OCc2ccccc2)ccn1-c1ccc(N2CCC3(CCCNC3)CC2)cc1 ?
stdout: 50.1 nM

stdin: What IC50 value was documented for this molecule, CCN1CCC2(CC1)CN(c1ccc(-n3ccc(OCc4ccccc4)cc3=O)cc1)C2 ?
stdout: 63.1 nM

stdin: What IC50 value was documented for this molecule, O=c1cc(OCc2ccccc2)ccn1-c1ccc(N2CC3(CCN(C4CC4)CC3)C2)cc1 ?
stdout: 100 nM
